pIC50 values recorded for UniProt:Q13547
Sequence (Q13547 whole entry): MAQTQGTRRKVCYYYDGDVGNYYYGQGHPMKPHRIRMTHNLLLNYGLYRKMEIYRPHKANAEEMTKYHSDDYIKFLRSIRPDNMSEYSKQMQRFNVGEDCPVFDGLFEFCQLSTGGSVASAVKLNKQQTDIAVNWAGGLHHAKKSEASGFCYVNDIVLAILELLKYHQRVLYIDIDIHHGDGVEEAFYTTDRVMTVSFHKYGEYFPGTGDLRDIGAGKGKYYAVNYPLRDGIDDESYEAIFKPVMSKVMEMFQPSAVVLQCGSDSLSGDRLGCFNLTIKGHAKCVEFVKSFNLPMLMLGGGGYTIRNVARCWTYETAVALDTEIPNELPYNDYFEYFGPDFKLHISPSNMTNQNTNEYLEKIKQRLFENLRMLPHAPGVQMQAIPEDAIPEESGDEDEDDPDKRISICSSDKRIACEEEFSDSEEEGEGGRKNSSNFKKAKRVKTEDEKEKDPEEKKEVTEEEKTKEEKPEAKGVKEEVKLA
Answer as the number alone; pIC50 is minus log10 of concentration in mol/L.

State the recorded pIC50 for this entry: Cc1c(F)c(N)cc(C(=O)Nc2cc(-c3ccc(C(=O)NCc4ccc(/C=C/C(=O)NO)cc4)cc3)ccc2N2CCN(C)CC2)c1Cl 6.40

State the recorded pIC50 for this entry: Cc1c(F)c(N)cc(C(=O)Nc2cc(-c3ccc(NC(=O)c4ccc(/C=C/C(=O)NO)cc4)cc3)ccc2N2CCN(C)CC2)c1Cl 5.16

---

pIC50 values recorded for UniProt:O15379
Sequence (O15379 whole entry): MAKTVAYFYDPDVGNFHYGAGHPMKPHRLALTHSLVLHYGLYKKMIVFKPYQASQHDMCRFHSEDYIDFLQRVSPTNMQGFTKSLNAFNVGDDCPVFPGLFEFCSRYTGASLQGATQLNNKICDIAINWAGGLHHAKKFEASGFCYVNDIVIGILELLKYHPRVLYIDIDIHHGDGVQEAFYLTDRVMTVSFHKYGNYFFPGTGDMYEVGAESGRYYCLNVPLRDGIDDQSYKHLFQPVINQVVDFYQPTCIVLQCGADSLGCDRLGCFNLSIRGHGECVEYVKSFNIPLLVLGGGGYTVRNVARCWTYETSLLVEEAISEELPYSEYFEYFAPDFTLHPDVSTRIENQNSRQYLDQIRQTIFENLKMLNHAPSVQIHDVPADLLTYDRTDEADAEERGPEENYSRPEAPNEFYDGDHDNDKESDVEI
Answer as the number alone; pIC50 is minus log10 of concentration in mol/L.

State the recorded pIC50 for this entry: Cc1c(F)c(N)cc(C(=O)Nc2cc(-c3ccc(NC(=O)c4ccccc4N)cc3)ccc2N2CCN(C)CC2)c1Cl 5.00

State the recorded pIC50 for this entry: Cc1c(F)c(N)cc(C(=O)Nc2cc(-c3ccc(NC(=O)CCc4ccc(/C=C/C(=O)NO)cc4)cc3)ccc2N2CCN(C)CC2)c1Cl 6.23

State the recorded pIC50 for this entry: Cc1c(F)c(N)cc(C(=O)Nc2cc(-c3ccc(C(=O)NCc4ccc(/C=C/C(=O)NO)cc4)cc3)ccc2N2CCN(C)CC2)c1Cl 6.53

State the recorded pIC50 for this entry: Cc1c(F)c(N)cc(C(=O)Nc2cc(-c3ccc(NC(=O)Cc4ccc(/C=C/C(=O)NO)cc4)cc3)ccc2N2CCN(C)CC2)c1Cl 6.18

Data provenance is ChEMBL document CHEMBL6096706.
